Cited source for all entries: ChEMBL document CHEMBL3046306

MNTC at 48 h listing for selected molecules.
- Protocol Details: Cytotoxicity against Chlorocebus aethiops (African green monkey) Vero cells assessed as concentration at which cell growth as in negative control after 48 hr by hemocytometer
- Assay type: cell-based
- Study Conditions: chlorocebus sabaeus, read-out: Activity
Measurement Type: MNTC at 48 h (µM)

>>> measured_value("CCOC(=O)[C@H](C)NC(=O)Cn1c([N+](=O)[O-])cnc1C")
72.2
>>> measured_value("COC(=O)[C@H](CC(=O)O)NC(=O)Cn1c([N+](=O)[O-])cnc1C")
314
>>> measured_value("Cc1ncc([N+](=O)[O-])n1CCO [METRONIDAZOLE]")
903
>>> measured_value("COC(=O)[C@@H]1CCCN1C(=O)Cn1c([N+](=O)[O-])cnc1C")
204

---

Parameter pIC50: see the listing below.
- Test system: Entamoeba histolytica
- Protocol Details: Antiparasitic activity against Entamoeba histolytica HK-9 strain ATCC 30015 using trypan blue staining by hemocytometer
- Assay type: functional, organism-based
pIC50: −log10 of the molar value.
Measurement Type: pIC50

>>> measured_value("Cc1ncc([N+](=O)[O-])n1CC(=O)N[C@@H](Cc1c[nH]c2ccccc12)C(=O)O")
4.76
>>> measured_value("COC(=O)[C@H](Cc1ccccc1)NC(=O)Cn1c([N+](=O)[O-])cnc1C")
4.66
>>> measured_value("CCOC(=O)[C@H](C)NC(=O)Cn1c([N+](=O)[O-])cnc1C")
5.68
>>> measured_value("Cc1ncc([N+](=O)[O-])n1CCO [METRONIDAZOLE]")
5.36
>>> measured_value("Cc1ncc([N+](=O)[O-])n1CC(=O)N[C@@H](Cc1cnc[nH]1)C(=O)O")
4.79
>>> measured_value("COC(=O)[C@@H]1CCCN1C(=O)Cn1c([N+](=O)[O-])cnc1C")
5.60
>>> measured_value("COC(=O)[C@H](Cc1ccc(O)cc1)NC(=O)Cn1c([N+](=O)[O-])cnc1C")
4.74
>>> measured_value("COC(=O)[C@H](Cc1c[nH]c2ccccc12)NC(=O)Cn1c([N+](=O)[O-])cnc1C")
5.08
>>> measured_value("COC(=O)[C@H](CC(=O)O)NC(=O)Cn1c([N+](=O)[O-])cnc1C")
5.66
>>> measured_value("COC(=O)[C@H](Cc1cnc[nH]1)NC(=O)Cn1c([N+](=O)[O-])cnc1C")
5.05
>>> measured_value("Cc1ncc([N+](=O)[O-])n1CC(=O)N[C@@H](Cc1ccccc1)C(=O)O")
4.63
>>> measured_value("CCOC(=O)C(CCCCNC(=O)Cn1c([N+](=O)[O-])cnc1C)NC(=O)Cn1c([N+](=O)[O-])cnc1C (configuration not stated)")
5.40

---

- Protocol Details: Cytotoxicity against Homo sapiens (human) Hep2 cells assessed as concentration at which cell growth as in negative control after 48 hr by hemocytometer
- Type: cell-based
- Study Conditions: HEp-2 cells, read-out: Activity
Quick list: MNTC at 48 h per entry.
Measurement Type: MNTC at 48 h (µM)

>>> measured_value("COC(=O)[C@H](CC(=O)O)NC(=O)Cn1c([N+](=O)[O-])cnc1C")
304
>>> measured_value("Cc1ncc([N+](=O)[O-])n1CCO")
869
>>> measured_value("CCOC(=O)[C@H](C)NC(=O)Cn1c([N+](=O)[O-])cnc1C")
69.7
>>> measured_value("COC(=O)[C@@H]1CCCN1C(=O)Cn1c([N+](=O)[O-])cnc1C")
169
